# growth inhibition listing for each entry below
Assay: NCI Yeast Anticancer Drug Screen. Data for the mec2-1 strain (AID 157)
Details: S. cerevisiae mec2-1 strain, at 50.0 µM, hits give high values
Procedure: Growth inhibition of yeast strains with defined genetic alterations is measured as a screen for potential anti-cancer activity. Selected strains with alterations in DNA damage repair or cell cycle control were exposed to compounds and growth inhibition was measured relative to vehicle treated controls. The strain used in this assay is mec2-1
About 79,000 compounds went through this panel and 15% of them were active in at least one assay; those are over-represented in the sample as a whole.
Note: unit % is implicit; provide only the numeric part.

Examples with answers:
Oc1ccc(/C=N/NC(=S)Nc2ccccc2)nc1: 86.8
Cc1c(S(C)=O)[n+](=O)c2ccccc2n1[O-] (stereo not drawn): 33.7
O=C(O/N=C1/CCCC/C1=C\c1ccccc1)c1ccccc1: 88.3
CC(=O)Nc1ccc(/S(=N\S(=O)(=O)c2ccc(C)cc2)c2ccc(NC(C)=O)cn2)cc1 (stereo not drawn): 4.8
O=C1CC(=S)NC(=S)N1: -1.7
O=C1C(c2ccccc2)=[N+]([O-])c2ccccc21: 98

Please examine the following record next.
Q: Recorded growth inhibition of CC1CC(C)CC(NC2=NCCO2)C1 (stereo not drawn) , please.
A: 22.2

----------
Test: NCI Yeast Anticancer Drug Screen. Data for the sgs1 mgt1 strain (AID 161);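 also: 0% = growth of cultures given vehicle only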
Details: S. cerevisiae sgs1 mgt1 strain, at 5.0 µM (retest, dose inferred, filed as 0.5), hits give high values
The panel holds about 79,000 compounds, 15% with a hit somewhere; the sample as a whole holds those more often.
Outcome label depends on growth inhibition relative to 40%: at/above gives condition met, below gives condition not met.

O=C(CCN1CCCC1)c1ccc(Oc2ccc(F)cc2)cc1: condition not met
CCN(CC)C(=S)N/N=C/c1cc([N+](=O)[O-])ccc1O: condition not met
CCC(CC)COC(=O)C(C)=O: condition not met
C[C-](O)O.O/C(=C\[C-](O)c1ccccc1)c1ccccc1.O/C(=C\[C-](O)c1ccccc1)c1ccccc1.[Nd+3] (stereo unspecified): condition met
CCOc1ccccc1N1C(=O)C=CC1=O: condition met

Q: Does the reported growth inhibition for O=[N+]([O-])c1ccc(Cc2nc3ccccc3s2)cc1 fall at or above the 40% mark?
A: condition met

Q: Does the reported growth inhibition for COC/C(Br)=C\SC#N (tested in a mixture with another compound) fall at or above the 40% mark?
A: condition not met

Q: Does the reported growth inhibition for COC(=O)c1ccccc1C#Cc1ccccc1C(=O)OC fall at or above the 40% mark?
A: condition not met

Q: Does the reported growth inhibition for O=[N+]([O-])c1cc(CN(CCO)CCO)c(O)c2ncccc12 fall at or above the 40% mark?
A: condition met

Q: Does the reported growth inhibition for Cc1cc(C)c(C(=O)/C=C/C(=O)c2ccccc2)c(C)c1 fall at or above the 40% mark?
A: condition met

Q: Does the reported growth inhibition for CC(CO)(Nc1ccc([N+](=O)[O-])cc1[N+](=O)[O-])C(=O)O (stereo unspecified) fall at or above the 40% mark?
A: condition not met

----------
Assay: NCI Yeast Anticancer Drug Screen. Data for the bub3 strain (AID 167)
Conditions: S. cerevisiae bub3 mutant strain, at 50.0 µM (retest, dose inferred, filed as 5.0), hits give high values
About 79,000 compounds went through this panel and 15% of them were active in at least one assay; those are over-represented in the sample as a whole.
measure name: growth inhibition (%)
Note: unit % is implicit; provide only the numeric part.

O=[N+]([O-])c1ccc(-[n+]2ccc3ccccc3c2)c([N+](=O)[O-])c1: 59

Q: Recorded growth inhibition of CC(=O)OC1CCC2(C)C3CCC4(C)C(C(C)CCCC(C)C)CCC4C3CCC23OC13C (stereo not given) , please.
A: -4

Q: Recorded growth inhibition of CCN(CC)CCNc1nc(N)c2nc(-c3ccccc3)c(-c3ccccc3)nc2n1 , please.
A: 36

Q: Recorded growth inhibition of C/C(=N/Nc1ccccc1)C(=O)O , please.
A: 96

Q: Recorded growth inhibition of O=C(O)/C(=C\c1ccc(F)cc1)c1ccccc1 , please.
A: 28

Q: Recorded growth inhibition of O=C1c2ccccc2C(=O)c2sccc21 , please.
A: 90

Q: Recorded growth inhibition of CC(C)(C)C(=O)/C=C/c1ccc2ccccc2n1 , please.
A: -73

Q: Recorded growth inhibition of CCCCCCCCCCCCCCCCCCOP(=O)([O-])OC1CC[N+](C)(C)CC1 , please.
A: 99

Values were extracted from PubChem BioAssay (NCI).
